Form: system (Escherichia coli NIHJ), quantity (MIC), values below.
readoutKind: MIC (µg/mL)

[
  {
    "cpdSmiles": "CC(=O)Oc1cc2occ(C(=O)N[C@@H](C(=O)N[C@@H]3C(=O)N4C(C(=O)O)=C(CSc5nnnn5C)CS[C@H]34)c3ccccc3)c(=O)c2cc1OC(C)=O",
    "system": "Escherichia coli NIHJ",
    "MIC, µg/mL": 0.2
  }
]

(P) O=C(O)C1=C(CSc2nncs2)CS[C@@H]2[C@H](NC(=O)[C@H](NC(=O)c3coc4cc(O)c(O)cc4c3=O)c3ccc(O)cc3)C(=O)N12
(Q) O=C(O)C1=C(CSc2ncccn2)CS[C@@H]2[C@H](NC(=O)[C@H](NC(=O)c3coc4cc(O)c(O)cc4c3=O)c3ccc(O)cc3)C(=O)N12
(R) Cn1nnnc1SCC1=C(C(=O)O)N2C(=O)[C@@H](NC(=O)[C@H](NC(=O)c3coc4ccccc4c3=O)c3ccccc3)[C@H]2SC1
(S) CC(=O)Oc1ccc2c(=O)c(C(=O)N[C@@H](C(=O)N[C@@H]3C(=O)N4C(C(=O)O)=C(CSc5nnc(C)s5)CS[C@H]34)c3ccc(O)cc3)coc2c1OC(C)=O
# input Hey, quick one: sort these by MIC, largest value first please. List each label, following the requested order.
# output R, S, Q, P

====

Form: system (Klebsiella pneumoniae EK-6), quantity (MIC), values below.

Worked examples follow.
[
  {
    "cpdSmiles": "Cc1nnc(SCC2=C(C(=O)O)N3C(=O)[C@@H](NC(=O)[C@H](NC(=O)c4coc5cc(O)c(O)cc5c4=O)c4ccccc4)[C@H]3SC2)s1",
    "MIC": "≤ 0.1 mg/L"
  },
  {
    "cpdSmiles": "Cn1nnnc1SCC1=C(C(=O)O)N2C(=O)[C@@H](NC(=O)[C@H](NC(=O)c3coc4c(O)c(O)c(O)cc4c3=O)c3ccc(O)cc3)[C@H]2SC1",
    "MIC": "≤ 0.1 mg/L"
  }
]

Now for another entry.
Entry CC(=O)Oc1ccc2c(=O)c(C(=O)N[C@@H](C(=O)N[C@@H]3C(=O)N4C(C(=O)O)=C(CSc5nnc(C)s5)CS[C@H]34)c3ccc(O)cc3)coc2c1OC(C)=O , MIC reported as ≤ 0.1 mg/L

====

Form: system (Staphylococcus aureus 209-P), quantity (MIC), values below.
readoutKind: MIC (µg/mL)

[
  {
    "molecule": "O=C(O)C1=C(CSc2ccccn2)CS[C@@H]2[C@H](NC(=O)[C@H](NC(=O)c3coc4cc(O)c(O)cc4c3=O)c3ccc(O)cc3)C(=O)N12",
    "outputUnit": "µg/mL",
    "numericReadout": 0.8
  },
  {
    "molecule": "CC(=O)Oc1ccc2c(=O)c(C(=O)N[C@@H](C(=O)N[C@@H]3C(=O)N4C(C(=O)O)=C(CSc5nnnn5C)CS[C@H]34)c3ccc(O)cc3)coc2c1OC(C)=O",
    "outputUnit": "µg/mL",
    "numericReadout": 0.8
  },
  {
    "molecule": "Cc1nnc(SCC2=C(C(=O)O)N3C(=O)[C@@H](NC(=O)[C@H](NC(=O)c4coc5cc(O)c(O)cc5c4=O)c4ccc(O)cc4)[C@H]3SC2)o1",
    "outputUnit": "µg/mL",
    "numericReadout": 0.8
  },
  {
    "molecule": "O=C(O)C1=C(CSc2cccc[n+]2[O-])CS[C@@H]2[C@H](NC(=O)[C@H](NC(=O)c3coc4cc(O)c(O)cc4c3=O)c3ccc(O)cc3)C(=O)N12",
    "outputUnit": "µg/mL",
    "numericReadout": 1.56
  },
  {
    "molecule": "CC(=O)Oc1ccc2c(=O)c(C(=O)N[C@@H](C(=O)N[C@@H]3C(=O)N4C(C(=O)O)=C(CSc5nnc(C)s5)CS[C@H]34)c3ccccc3)coc2c1OC(C)=O",
    "outputUnit": "µg/mL",
    "numericReadout": 0.8
  }
]

(I) CC(=O)Oc1cc2occ(C(=O)N[C@@H](C(=O)N[C@@H]3C(=O)N4C(C(=O)O)=C(CSc5nnc(C)s5)CS[C@H]34)c3ccc(O)cc3)c(=O)c2cc1OC(C)=O
(II) Cn1nnnc1SCC1=C(C(=O)O)N2C(=O)[C@@H](NC(=O)[C@H](NC(=O)c3coc4ccccc4c3=O)c3ccc(O)cc3)[C@H]2SC1
# input Of I and II , whose reported MIC is the larger number? Identify your selection by its label.
# output I
(I: 3.13 µg/mL, II: 0.4 µg/mL)

(1) O=C(O)Cn1nnnc1SCC1=C(C(=O)O)N2C(=O)[C@@H](NC(=O)[C@H](NC(=O)c3coc4cc(O)c(O)cc4c3=O)c3ccc(O)cc3)[C@H]2SC1
(2) CC(=O)Oc1ccc2c(=O)c(C(=O)N[C@@H](C(=O)N[C@@H]3C(=O)N4C(C(=O)O)=C(CSc5nnc(C)s5)CS[C@H]34)c3ccc(O)cc3)coc2c1OC(C)=O
# input Of 1 and 2 , whose reported MIC is the larger number? Identify your selection by its label.
# output 1

====

Form: system (Escherichia coli NIHJ), quantity (MIC), values below.
readoutKind: MIC (µg/mL)

[
  {
    "compound": "Cc1nnc(SCC2=C(C(=O)O)N3C(=O)[C@@H](NC(=O)[C@H](NC(=O)c4coc5cc(O)c(O)cc5c4=O)c4ccc(O)cc4)[C@H]3SC2)s1 [Example 4]",
    "system": "Escherichia coli NIHJ",
    "outputUnit": "µg/mL",
    "numericReadout": 0.8
  }
]

(P) O=C(O)Cn1nnnc1SCC1=C(C(=O)O)N2C(=O)[C@@H](NC(=O)[C@H](NC(=O)c3coc4cc(O)c(O)cc4c3=O)c3ccc(O)cc3)[C@H]2SC1 [Example 23]
(Q) Cn1nnnc1SCC1=C(C(=O)O)N2C(=O)[C@@H](NC(=O)[C@H](NC(=O)c3coc4ccccc4c3=O)c3ccc(O)cc3)[C@H]2SC1 [Example 15]
# input Looking at recorded values for MIC, does P or Q come in lower? Identify your selection by its label.
# output P

====

Structures can show the parent of a compound that is named as a salt.
Form: system (Escherichia coli NIHJ), quantity (MIC), values below.
readoutKind: MIC (µg/mL)

[
  {
    "compound": "Cn1nnnc1SCC1=C(C(=O)O)N2C(=O)[C@@H](NC(=O)[C@H](NC(=O)c3coc4cc(O)c(O)cc4c3=O)c3ccccc3)[C@H]2SC1",
    "system": "Escherichia coli NIHJ",
    "MIC (µg/mL)": 0.4
  }
]

(1) Cc1nnc(SCC2=C(C(=O)O)N3C(=O)[C@@H](NC(=O)Cn4cnnn4)[C@H]3SC2)s1 [Sodium salt of Cefazolin, reference compound]
(2) Cn1nnnc1SCC1=C(C(=O)O)N2C(=O)[C@@H](NC(=O)[C@H](NC(=O)c3coc4cc(O)ccc4c3=O)c3ccc(O)cc3)[C@H]2SC1
(3) O=C(O)Cn1nnnc1SCC1=C(C(=O)O)N2C(=O)[C@@H](NC(=O)[C@H](NC(=O)c3coc4c(O)c(O)c(O)cc4c3=O)c3ccc(O)cc3)[C@H]2SC1
# input Hey, quick one: sort these by MIC, largest value first please. List each label, following the requested order.
# output 2, 1, 3
(2: 6.25 µg/mL, 1: 1.56 µg/mL, 3: 0.8 µg/mL)

====

Form: system (Klebsiella pneumoniae EK-6), quantity (MIC), values below.

Worked examples follow.
[
  {
    "cpdSmiles": "Cn1nnnc1SCC1=C(C(=O)O)N2C(=O)[C@@H](NC(=O)[C@H](NC(=O)c3coc4cc(O)c(O)cc4c3=O)c3ccc(O)cc3)[C@H]2SC1",
    "MIC": "≤ 0.1 µg/mL"
  },
  {
    "cpdSmiles": "O=C(O)Cn1nnnc1SCC1=C(C(=O)O)N2C(=O)[C@@H](NC(=O)[C@H](NC(=O)c3coc4c(O)c(O)c(O)cc4c3=O)c3ccc(O)cc3)[C@H]2SC1",
    "MIC": "≤ 0.1 µg/mL"
  },
  {
    "cpdSmiles": "Cn1nnnc1SCC1=C(C(=O)O)N2C(=O)[C@@H](NC(=O)[C@H](NC(=O)c3coc4cc(O)c(O)cc4c3=O)c3ccccc3)[C@H]2SC1",
    "MIC": "≤ 0.1 µg/mL"
  }
]

Recorded MIC for Cn1nnnc1SCC1=C(C(=O)O)N2C(=O)[C@@H](NC(=O)[C@H](NC(=O)c3coc4ccccc4c3=O)c3ccccc3)[C@H]2SC1 on Klebsiella pneumoniae EK-6 was 6.25 µg/mL

Recorded MIC for O=C(O)C1=C(CSc2nnc[nH]2)CS[C@@H]2[C@H](NC(=O)[C@H](NC(=O)c3coc4cc(O)c(O)cc4c3=O)c3ccc(O)cc3)C(=O)N12 on Klebsiella pneumoniae EK-6 was ≤ 0.1 µg/mL

Recorded MIC for CC(=O)Oc1ccc2c(=O)c(C(=O)N[C@@H](C(=O)N[C@@H]3C(=O)N4C(C(=O)O)=C(CSc5nnc(C)s5)CS[C@H]34)c3ccccc3)coc2c1OC(C)=O on Klebsiella pneumoniae EK-6 was ≤ 0.1 µg/mL
